Some compounds, each annotated with its measured relative viability.
Test system: H3255
Assay: relative viability (nuclei count vs DMSO), 5 days (fraction); higher = more cells survive
Details: first compound 0.1581 µM
observed_property: relative viability

compound: COc1cc2nccc(Oc3ccc(NC(=O)Nc4cc(C)on4)c(Cl)c3)c2cc1OC [Tivozanib] + O=C(CCCCCCC(=O)Nc1ccccc1)NO [Vorinostat] (partner 1 µM)
observed_measurement: 0.888
//
compound: Nc1ccn([C@@H]2O[C@H](CO)[C@@H](O)[C@@H]2O)c(=O)n1 [Cytarabine] + C[C@@H](Oc1cc(-c2cnn(C3CCNCC3)c2)cnc1N)c1c(Cl)ccc(F)c1Cl [Crizotinib] (partner 1 µM)
observed_measurement: 0.724
//
compound: COc1cc2nccc(Oc3ccc(NC(=O)Nc4cc(C)on4)c(Cl)c3)c2cc1OC [Tivozanib] + CC(C)C[C@H](NC(=O)[C@H](Cc1ccccc1)NC(=O)c1cnccn1)B(O)O [Bortezomib] (partner 0.002 µM)
observed_measurement: 0.582
//
compound: Nc1ccn([C@@H]2O[C@H](CO)[C@@H](O)[C@@H]2O)c(=O)n1 [Cytarabine] + COc1cccc2cc(-c3nc([C@H]4CC[C@H](C(=O)O)CC4)n4ncnc(N)c34)[nH]c12 [OSI-027] (partner 0.5 µM)
observed_measurement: 0.429
//
compound: COc1cc2nccc(Oc3ccc(NC(=O)Nc4cc(C)on4)c(Cl)c3)c2cc1OC [Tivozanib] + Cc1nc(NC(=O)N2CCC[C@H]2C(N)=O)sc1-c1ccnc(C(C)(C)C(F)(F)F)c1 [Alpelisib] (partner 2 µM)
observed_measurement: 0.689
//
compound: COc1cc2nccc(Oc3ccc(NC(=O)Nc4cc(C)on4)c(Cl)c3)c2cc1OC [Tivozanib] + Nc1nc2[nH]cc(CCc3ccc(C(=O)N[C@@H](CCC(=O)O)C(=O)O)cc3)c2c(=O)[nH]1 [Pemetrexed] (partner 0.2 µM)
observed_measurement: 0.55
//
compound: Nc1ccn([C@@H]2O[C@H](CO)[C@@H](O)[C@@H]2O)c(=O)n1 [Cytarabine] + NC(=O)Nc1cc(-c2cccc(F)c2)sc1C(=O)N[C@H]1CCCNC1 [AZD7762] (partner 0.2 µM)
observed_measurement: 0.583

----------
Test system: CAL-12T
Test: relative viability (nuclei count vs DMSO), 5 days (fraction); higher = more cells survive
Conditions: first compound 0.1581 µM

molecule: Nc1ccn([C@@H]2O[C@H](CO)[C@@H](O)[C@@H]2O)c(=O)n1 [Cytarabine] + Cc1nc(Nc2ncc(C(=O)Nc3c(C)cccc3Cl)s2)cc(N2CCN(CCO)CC2)n1 [Dasatinib] (partner 0.075 µM)
relative viability: 0.284
//
molecule: Nc1ccn([C@@H]2O[C@H](CO)[C@@H](O)[C@@H]2O)c(=O)n1 [Cytarabine] + CC1(C)CCC(c2ccc(Cl)cc2)=C(CN2CCN(c3ccc(C(=O)NS(=O)(=O)c4ccc(N[C@H](CCN5CCOCC5)CSc5ccccc5)c(S(=O)(=O)C(F)(F)F)c4)cc3)CC2)C1 [Navitoclax] (partner 0.5 µM)
relative viability: 0.598
//
molecule: Nc1ccn([C@@H]2O[C@H](CO)[C@@H](O)[C@@H]2O)c(=O)n1 [Cytarabine] + Cc1nc(NC(=O)N2CCC[C@H]2C(N)=O)sc1-c1ccnc(C(C)(C)C(F)(F)F)c1 [Alpelisib] (partner 2 µM)
relative viability: 0.514
//
molecule: Nc1ccn([C@@H]2O[C@H](CO)[C@@H](O)[C@@H]2O)c(=O)n1 [Cytarabine] + N=C(N)NC(=N)NCCc1ccccc1 [Phenformin] (partner 250 µM)
relative viability: 0.283
//
molecule: Nc1ccn([C@@H]2O[C@H](CO)[C@@H](O)[C@@H]2O)c(=O)n1 [Cytarabine] + CCNC(=O)c1noc(-c2cc(C(C)C)c(O)cc2O)c1-c1ccc(CN2CCOCC2)cc1 [Luminespib] (partner 0.01 µM)
relative viability: 0.217

Each recorded value in this set is attributed to the supplement of paper PMC10307832.
